Biological target: glucocerebrosidase (Gcase) (Homo sapiens, UniProt P04062)
Construct: micellar solution containing 10 nM GCase and 100 nM saposin C (Enzo ALX-201-262-C050)
Sequence (P04062 40-536): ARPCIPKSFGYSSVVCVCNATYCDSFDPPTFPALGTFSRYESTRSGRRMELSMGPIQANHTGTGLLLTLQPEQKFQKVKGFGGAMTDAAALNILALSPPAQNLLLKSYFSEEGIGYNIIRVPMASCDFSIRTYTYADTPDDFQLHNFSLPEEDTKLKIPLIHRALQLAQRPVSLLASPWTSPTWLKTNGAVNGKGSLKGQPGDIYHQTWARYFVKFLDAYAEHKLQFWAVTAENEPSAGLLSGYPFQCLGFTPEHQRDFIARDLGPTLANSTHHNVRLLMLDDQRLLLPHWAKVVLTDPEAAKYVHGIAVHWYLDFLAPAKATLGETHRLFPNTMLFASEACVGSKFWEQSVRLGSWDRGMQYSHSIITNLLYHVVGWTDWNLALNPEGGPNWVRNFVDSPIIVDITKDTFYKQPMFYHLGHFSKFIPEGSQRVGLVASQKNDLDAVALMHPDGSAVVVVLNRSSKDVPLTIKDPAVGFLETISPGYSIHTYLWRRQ
Assay: Glucocerebrosidase (Gcase) activation assay, 4-methylumbelliferyl-beta-D-glucopyranoside substrate, with saposin C
Type: biochemical
Settings: read-out: Percent Gcase Activation 1 μM Test Compound
Quantity kind: activation at 1 µM

// query Form field - read-out: activation at 1 µM; system: glucocerebrosidase (Gcase) (Homo sapiens, UniProt P04062); submitted item: CC1CCC(NC(=O)c2cnc3n(c2=O)CCS3)CC1 (stereo not drawn)
// result 5 to 20%

// query Also check Cc1cc(C)cc(NC(=O)c2cnc3sccn3c2=O)c1
// result 5 to 20%

// query Also check CCCCC1CCC(NC(=O)c2cnc3cccc(C)n3c2=O)CC1 (stereo not drawn)
// result > 20%

// query Also check CCc1ccc(NC(=O)c2cnc3scc(-c4ccccc4)n3c2=O)cc1
// result > 20%

// query Also check Cc1csc2ncc(C(=O)Nc3ccc(Oc4ccccc4)cc3)c(=O)n12
// result > 20%

// query Also check CC(C)c1ccc(NC(=O)c2cnc3sccn3c2=O)nc1
// result 5 to 20%

// query Also check C[C@H](NC(=O)c1cnc2n(c1=O)CCS2)c1ccccc1
// result 5 to 20%

* * *

activation at 0.1 µM values by entry
Target: glucocerebrosidase (Gcase) (Homo sapiens)
Construct: micellar solution containing 10 nM GCase and 100 nM saposin C (Enzo ALX-201-262-C050)
Sequence (P04062 40-536): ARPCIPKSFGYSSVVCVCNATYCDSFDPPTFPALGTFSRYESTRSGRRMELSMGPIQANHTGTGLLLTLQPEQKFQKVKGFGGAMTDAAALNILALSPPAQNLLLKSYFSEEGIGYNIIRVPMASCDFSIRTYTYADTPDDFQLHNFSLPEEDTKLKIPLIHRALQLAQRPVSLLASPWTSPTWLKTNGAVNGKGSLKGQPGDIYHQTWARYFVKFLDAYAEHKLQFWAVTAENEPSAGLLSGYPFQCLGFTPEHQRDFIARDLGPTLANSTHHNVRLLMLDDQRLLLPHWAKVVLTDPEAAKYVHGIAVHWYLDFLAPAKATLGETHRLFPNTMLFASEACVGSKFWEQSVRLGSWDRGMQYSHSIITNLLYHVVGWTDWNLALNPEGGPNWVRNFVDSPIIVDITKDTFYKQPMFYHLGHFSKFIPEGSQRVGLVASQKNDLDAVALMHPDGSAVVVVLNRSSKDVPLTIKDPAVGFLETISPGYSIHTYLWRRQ
Test: Glucocerebrosidase (Gcase) activation assay, 4-methylumbelliferyl-beta-D-glucopyranoside substrate, with saposin C
Type: biochemical
Conditions: read-out: Percent Gcase Activation 0.1 μM Test Compound

Compound: Cc1cccc2ncc(C(=O)NCCOc3ccccc3)c(=O)n12
Target desc: glucocerebrosidase (Gcase) (Homo sapiens)
activation at 0.1 µM: < 5%
//
Compound: CCc1ccc(NC(=O)c2cnc3ccccn3c2=O)cc1
Target desc: glucocerebrosidase (Gcase) (Homo sapiens)
activation at 0.1 µM: < 5%
//
Compound: CCc1ccc(CCNC(=O)c2cnc3sccn3c2=O)cc1
Target desc: glucocerebrosidase (Gcase) (Homo sapiens)
activation at 0.1 µM: < 5%
//
Compound: C[C@@H](NC(=O)c1cnc2n(c1=O)CCS2)c1ccccc1
Target desc: glucocerebrosidase (Gcase) (Homo sapiens)
activation at 0.1 µM: < 5%
//
Compound: O=C(Nc1ccc(-c2cccs2)cc1)c1cnc2n(c1=O)CCS2
Target desc: glucocerebrosidase (Gcase) (Homo sapiens)
activation at 0.1 µM: 5 to 20%

// query Form field - read-out: activation at 0.1 µM; system: glucocerebrosidase (Gcase) (Homo sapiens); submitted item: CCC(C)c1ccc(NC(=O)c2cnc3sccn3c2=O)cc1 (stereo not shown)
// result < 5%

// query Also check O=C(NCCOc1ccccc1)c1cnc2n(c1=O)CCS2
// result < 5%

// query Also check CCN1CCN(c2ccc(NC(=O)c3cnc4cccc(C)n4c3=O)cc2)CC1
// result < 5%

// query Also check O=C(Nc1ccc2c(c1)OCCO2)c1cnc2n(c1=O)CCS2
// result < 5%

// query Also check O=C(NC1Cc2ccccc2C1)c1cnc2sccn2c1=O
// result 5 to 20%

// query Also check O=C(NC1CCOCC1)c1cnc2n(c1=O)CCS2
// result < 5%

// query Also check CCc1ccc(CNC(=O)c2cnc3sccn3c2=O)cc1
// result < 5%

// query Also check CC(C)c1ccc(NC(=O)c2cnc3sccn3c2=O)nc1
// result < 5%

// query Also check Cc1cccc2ncc(C(=O)NC3CC4CCC3C4)c(=O)n12 (stereo not shown)
// result < 5%

// query Also check CCC(C)c1ccc(NC(=O)c2cnc3cccc(C)n3c2=O)cc1 (stereo not shown)
// result 5 to 20%

// query Also check Cc1cccc2ncc(C(=O)Nc3ccc(C4CCCCC4)cc3)c(=O)n12
// result < 5%

* * *

Target: glucocerebrosidase (Gcase) (Homo sapiens)
Construct: micellar solution containing 10 nM GCase and 100 nM saposin C (Enzo ALX-201-262-C050)
Sequence (P04062 40-536): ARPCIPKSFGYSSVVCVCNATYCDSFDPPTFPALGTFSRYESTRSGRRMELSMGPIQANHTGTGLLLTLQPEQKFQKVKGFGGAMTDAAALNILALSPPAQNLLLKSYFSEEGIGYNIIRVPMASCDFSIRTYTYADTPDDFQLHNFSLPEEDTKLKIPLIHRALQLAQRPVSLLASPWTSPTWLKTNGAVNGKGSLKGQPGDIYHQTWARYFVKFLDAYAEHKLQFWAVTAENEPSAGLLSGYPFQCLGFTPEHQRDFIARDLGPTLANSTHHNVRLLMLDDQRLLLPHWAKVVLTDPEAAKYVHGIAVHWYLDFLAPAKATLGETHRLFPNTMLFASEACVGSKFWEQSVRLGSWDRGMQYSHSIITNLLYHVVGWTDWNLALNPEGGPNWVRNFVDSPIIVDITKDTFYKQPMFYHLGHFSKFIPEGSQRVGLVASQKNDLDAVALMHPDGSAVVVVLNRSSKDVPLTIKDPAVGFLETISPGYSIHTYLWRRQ
Assay: Glucocerebrosidase (Gcase) activation assay, 4-methylumbelliferyl-beta-D-glucopyranoside substrate, with saposin C
Type: biochemical
Conditions: read-out: Percent Gcase Activation 0.1 μM Test Compound
activation at 0.1 µM values by entry

In the examples that follow, each entry is paired with its recorded activation at 0.1 µM.
Compound: CCCCc1ccc(NC(=O)c2cnc3n(c2=O)CCS3)cc1
Target desc: glucocerebrosidase (Gcase) (Homo sapiens)
activation at 0.1 µM: 5 to 20%
--
Compound: Cc1cccc2ncc(C(=O)Nc3ccc(N4CCCCC4)cc3)c(=O)n12
Target desc: glucocerebrosidase (Gcase) (Homo sapiens)
activation at 0.1 µM: < 5%
--
Compound: Cc1ccc(NC(=O)c2cnc3n(c2=O)CCS3)cc1-c1ncco1
Target desc: glucocerebrosidase (Gcase) (Homo sapiens)
activation at 0.1 µM: < 5%
--
Compound: C[C@H](NC(=O)c1cnc2n(c1=O)CCS2)c1ccccc1
Target desc: glucocerebrosidase (Gcase) (Homo sapiens)
activation at 0.1 µM: 5 to 20%
--
Compound: O=C(Nc1ccc(-c2ccco2)cc1)c1cnc2n(c1=O)CCS2
Target desc: glucocerebrosidase (Gcase) (Homo sapiens)
activation at 0.1 µM: 5 to 20%
--
Compound: CCCCC1CCC(NC(=O)c2cnc3n(c2=O)CCS3)CC1 (centres unmarked)
Target desc: glucocerebrosidase (Gcase) (Homo sapiens)
activation at 0.1 µM: 5 to 20%
--
Compound: CCCCCO[C@H]1CC[C@H](NC(=O)c2cnc3n(c2=O)CCS3)CC1
Target desc: glucocerebrosidase (Gcase) (Homo sapiens)
activation at 0.1 µM: < 5%
--
Compound: Cc1csc2ncc(C(=O)Nc3ccc(C(C)C)cc3)c(=O)n12
Target desc: glucocerebrosidase (Gcase) (Homo sapiens)
activation at 0.1 µM: 5 to 20%
--
Compound: O=C(NC1CCCC2(CCCCO2)C1)c1cnc2n(c1=O)CCS2 (centres unmarked)
Target desc: glucocerebrosidase (Gcase) (Homo sapiens)
activation at 0.1 µM: < 5%
--
Compound: O=C(Nc1ccc(-c2cocn2)cc1)c1cnc2n(c1=O)CCS2
Target desc: glucocerebrosidase (Gcase) (Homo sapiens)
activation at 0.1 µM: < 5%

From here, focus on the item given below.
// query Requested field: activation at 0.1 µM. Item: O=C(NC1CCOc2ccccc21)c1cnc2n(c1=O)CCS2 (centres unmarked)
// result < 5%
